All values here come from PubChem BioAssay AID624330.

Quick reference: inhibition of the listed items.
measured-target: Rac GTPase-activating protein 1 (Homo sapiens) (UniProt Q9H0H5)
Sequence (Q9H0H5 whole entry, looked up): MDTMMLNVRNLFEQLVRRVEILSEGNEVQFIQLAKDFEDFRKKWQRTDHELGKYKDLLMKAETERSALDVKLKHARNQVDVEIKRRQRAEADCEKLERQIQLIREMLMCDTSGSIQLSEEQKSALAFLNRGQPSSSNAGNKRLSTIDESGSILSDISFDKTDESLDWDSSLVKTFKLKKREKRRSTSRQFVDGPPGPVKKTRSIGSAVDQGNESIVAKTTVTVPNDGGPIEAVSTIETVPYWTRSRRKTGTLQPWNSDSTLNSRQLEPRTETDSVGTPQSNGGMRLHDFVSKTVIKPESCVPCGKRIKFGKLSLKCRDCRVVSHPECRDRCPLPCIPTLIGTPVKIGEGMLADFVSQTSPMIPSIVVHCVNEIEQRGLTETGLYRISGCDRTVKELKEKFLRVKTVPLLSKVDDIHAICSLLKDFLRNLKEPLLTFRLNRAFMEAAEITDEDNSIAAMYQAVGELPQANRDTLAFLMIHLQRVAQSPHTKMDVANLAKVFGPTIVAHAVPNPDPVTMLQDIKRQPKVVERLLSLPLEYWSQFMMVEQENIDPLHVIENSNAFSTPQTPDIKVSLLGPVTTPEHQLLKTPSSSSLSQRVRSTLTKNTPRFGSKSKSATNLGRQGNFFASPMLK
assay-protocol: blockers of MgcRacGAP-driven Rac1 GTP hydrolysis – biochemical, ADP Hunter fluorescence, primary and confirmatory, confirmation (AID 624330);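 also: fluorescence reports GDP produced by GAP-driven GTP hydrolysis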
experimental-parameters: MgcRacGAP-stimulated Rac1 GTP hydrolysis, at 30 µM, active compounds read high, GST-tagged Rac1 F28L mutant substrate
The whole screen tested about 340,000 compounds, of which about 2,100 (0.62%) were called active. Only a sample is shown. Potency and affinity values are given separately. Square brackets hold non-standard residues; d marks the D form. Peptide text beside a SMILES is read from it. * marks the point of attachment. ξ: configuration not given here. Cbz = O=C(OCc1ccccc1)*; ξP = O=C(O)C1CCCN1

Examples from the recorded data:
{"compound": "O=C(CNCc1ccccc1Cl)Nc1ccc2c(c1)OCCO2", "measured-target": "Rac GTPase-activating protein 1 (Homo sapiens) (UniProt Q9H0H5)", "inhibition": "29.9% (inactive)"}
{"compound": "O=C(COC(=O)c1cc(F)c(F)cc1Cl)NC1CCCCCC1", "measured-target": "Rac GTPase-activating protein 1 (Homo sapiens) (UniProt Q9H0H5)", "inhibition": "-27.4% (inactive)"}
{"compound": "CNCCCOc1cccc(OC(C)C)c1", "measured-target": "Rac GTPase-activating protein 1 (Homo sapiens) (UniProt Q9H0H5)", "inhibition": "16.9% (inactive)"}
{"compound": "Cc1cc2c(NCC(C)O)ncnc2s1 (stereo not drawn)", "measured-target": "Rac GTPase-activating protein 1 (Homo sapiens) (UniProt Q9H0H5)", "inhibition": "8.37% (inactive)"}
{"compound": "Cc1ccc2nc(SCC(=O)NCc3ccc(F)cc3)nc(=O)n2c1", "measured-target": "Rac GTPase-activating protein 1 (Homo sapiens) (UniProt Q9H0H5)", "inhibition": "6.12% (inactive)"}

Would you kindly share the measured inhibition for COc1ccc(CNC(=O)C(NS(=O)(=O)c2ccc3c(c2)CCCN3C(C)=O)C(C)C)cc1 (stereo not drawn) ?
6.24% (inactive)

Same question, O=C(CN(c1ccccc1)S(=O)(=O)c1ccccc1)Nc1ccc(F)cc1 this time
-5.62% (inactive)

// repeat for COC(=O)CNC(=O)C1CCCN1C(=O)CNC(=O)OCc1ccccc1 (stereo not drawn) (Cbz-Gly-[ξP]-Gly-OMe) and report
7.71% (inactive)

Please answer likewise for CC(=O)N1CCc2c(sc(NC(=O)Cc3ccc(C)cc3C)c2C#N)C1
-2.35% (inactive)

Also COc1ccccc1N1CCN(CCCCCCOc2ccc(F)cc2)CC1 ?
7.05% (inactive)

Please give the result for CCCCN(C)C(=O)c1ccc2c(c1)N(CC)C(=O)c1ccccc1S2=O (stereo not drawn) too.
7.28% (inactive)

What about this compound? NC(=O)C[C@H](N)c1cn([C@@H](CC(N)=O)C(=O)N2CCNCC2)nn1
-0.03% (inactive)

Try this compound next: O=C(CN1CCCC1)Nc1cccc(Cl)c1
6.77% (inactive)

What do you have for O=C(CNC(=O)c1ccccc1)NCCc1ccc(O)c(O)c1 ?
10.9% (inactive)

----------
inhibition listing for selected compounds.
measured-target: Rac GTPase-activating protein 1 (Homo sapiens)
assay-protocol: blockers of MgcRacGAP-driven Rac1 GTP hydrolysis – biochemical, ADP Hunter fluorescence, primary and confirmatory, confirmation (AID 624330);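 also: fluorescence reports GDP produced by GAP-driven GTP hydrolysis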
experimental-parameters: MgcRacGAP-stimulated Rac1 GTP hydrolysis, at 30 µM, active compounds read high, GST-tagged Rac1 F28L mutant substrate
Out of some 340,000 compounds screened, about 2,100 (0.62%) were called active. A selection follows. Potency and affinity values are given separately.

Study these solved cases before continuing.
{"compound": "COc1ccccc1N1CCN(Cc2cc3c(cc2Br)OCCO3)CC1", "result": "2.26% (inactive)"}
{"compound": "Cc1ccc(NCCc2ccc(C)nc2)cc1", "result": "24.8% (inactive)"}
{"compound": "COc1ccc(NC2CCCN(C(=O)C3(C)CCCCC3)C2)cc1OC (configuration not stated)", "result": "-45.5% (inactive)"}

May I ask what inhibition has been recorded for Cc1cccc(OCCSc2nc(N)cc(N)n2)c1 ?
25.9% (inactive)

Here is the next compound: Cc1ccc(CCNc2ccccc2C)cn1
6.7% (inactive)

Entry to check: COc1ccccc1C(=O)NC(CCSC)C(=O)NCC(c1ccco1)N(C)C (configuration not stated)
10.1% (inactive)
